Test system: P. acnes
Assay Info: P. acnes growth curve (time to OD600 nm = 0.5)
Format: cell-based, Propionibacterium acnes
Cond: 6 ppm; vehicle 42-44 h
The star is where a group is joined. Palmitoyl = CCCCCCCCCCCCCCCC(=O)*
Recorded Time (in hour) to reach OD600 nm = 0.5 values for a group of substances are listed next.
The response must be a number in h with no trailing unit.

As a guide, the following entries are already answered.
- Pal-GKTSKS-OH: 45.6
- Pal-KTSKT-OH (Palmitoyl-KTSKT-OH; SMILES CCCCCCCCCCCCCCCC(=O)N[C@@H](CCCCN)C(=O)N[C@H](C(=O)N[C@@H](CO)C(=O)N[C@@H](CCCCN)C(=O)N[C@H](C(=O)O)[C@@H](C)O)[C@@H](C)O) [other preferred peptide of the invention, palmitoyl pentapeptide KTSKT]: 47.7
- palmitoyl-lysyl-threonyl-serine-lysyl-serine (Palmitoyl-KTSKS-OH; SMILES CCCCCCCCCCCCCCCC(=O)N[C@@H](CCCCN)C(=O)N[C@H](C(=O)N[C@@H](CO)C(=O)N[C@@H](CCCCN)C(=O)N[C@@H](CO)C(=O)O)[C@@H](C)O) [Pal-KTSKS]: 48.8

IN: Which measured Time (in hour) to reach OD600 nm = 0.5 belongs to Pal-KTSKSA-OH (Palmitoyl-KTSKSA-OH; SMILES CCCCCCCCCCCCCCCC(=O)N[C@@H](CCCCN)C(=O)N[C@H](C(=O)N[C@@H](CO)C(=O)N[C@@H](CCCCN)C(=O)N[C@@H](CO)C(=O)N[C@@H](C)C(=O)O)[C@@H](C)O) [other preferred peptide of the invention, palmitoyl hexapeptide KTSKSA] , tested on P. acnes?
OUT: 47.3
